Molecular target: T1, RBFOX1 RRM (Homo sapiens, UniProt Q9NWB1 109-208)
T1 sequence: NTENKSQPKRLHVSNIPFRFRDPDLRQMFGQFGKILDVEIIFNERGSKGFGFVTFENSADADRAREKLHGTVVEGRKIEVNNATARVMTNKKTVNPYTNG
Assay: EMSA; HiTS-Eq, 1 nM pool, 10 min; buffer printed only for the single-RNA assays: 10 mM Tris pH 7.5, 150 mM NaCl, 3.4 mM EDTA, 0.001% NP-40, 30 C
Conditions: tags: His6 N-terminal (pET28a); label: 5' 32P
Over roughly 16,000 sequences, “ka relative to ugcaugu” has its median near 0.0091; the highest 2% begin near 0.032. For the sample, the highest values were picked, then their nearest neighbours and some sequences at random.
quantity measured: binding signal

binder	quantity measured	observed result
UGACUAA (DNA:RNA) RNA: GGGAGACCGGAAUUCAGAUUGUCCUGACUAAUUAAAUCCCGUCGUAGCCACCA DNA 1: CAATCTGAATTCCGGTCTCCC DNA 2: TGGTGGCTACGACGGGATT	binding signal	0.00904 KA relative to UGCAUGU
CUGGAUG (DNA:RNA) RNA: GGGAGACCGGAAUUCAGAUUGUCCCUGGAUGUUAAAUCCCGUCGUAGCCACCA DNA 1: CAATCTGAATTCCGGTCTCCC DNA 2: TGGTGGCTACGACGGGATT	binding signal	0.0353 KA relative to UGCAUGU

As a next step, examine the binder that follows.
Task item: // returns reported binding signal for input ACAGACA (DNA:RNA) RNA: GGGAGACCGGAAUUCAGAUUGUCCACAGACAUUAAAUCCCGUCGUAGCCACCA DNA 1: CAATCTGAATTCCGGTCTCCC DNA 2: TGGTGGCTACGACGGGATT
Reply: 0.00018 KA relative to UGCAUGU
